pIC50: −log10 of the molar value.
System: human PDE10A2 (Homo sapiens (Human), UniProt Q9Y233) | Read-out: pIC50 | Origin: multiple publications
measurementLabel: pIC50

Worked cases, answers included:
Cc1nc2c(OC(C)C)cc(CCc3nc(N4CCCC4)nn3C)nn2c1C 8.52
COCCNC(=O)c1[nH]nnc1C(=O)Nc1ccn2cc(-c3ccccc3)nc2n1 6.58
Cc1nc2ccc(C(C)C)nc2n2c(-c3cc(OCC(C)(C)O)ccc3F)nnc12 5.92

[I] Cc1nc2cccnc2n2c(-c3cc(CCC(C)(C)O)ccc3F)nnc12
[II] Cc1ncc(C)n2nc(/C=C/c3ccc4cc(C(F)(F)F)ccc4n3)nc12
[III] CNC(=O)c1ccc(-c2nccnc2C2CCN(c3ccc4cc(F)ccc4n3)CC2)cc1F
Exercise: Hey, quick one: sort these by pIC50, largest value first please. Labels, requested order.
Solution: III, II, I
(III: 8.55, II: 6.31, I: 5.45)

[I] Cc1ccc(Nc2cncnc2)c(C(=O)Nc2ccn(-c3ccccn3)n2)n1
[II] Cn1ncc(NC(=O)c2nc(C3CC3)cnc2Nc2cncnc2)c1C(=O)NC(C)(C)CO
Exercise: Please let me know which one, I or II , has a lower measured pIC50 value. Indicate your choice by writing its label.
Solution: I
